Property: IC50; scope: individual binders
Target: T1, recombinant human c-Met/Fc chimera (R&D systems) (human)
T1 construct: R&D Systems 358-MT/CF, expressed in NS0 cells; also called hc-Met/Fc; hu c-Met/Fc
T1 sequence (chain, as listed by the source mutant limits assumed): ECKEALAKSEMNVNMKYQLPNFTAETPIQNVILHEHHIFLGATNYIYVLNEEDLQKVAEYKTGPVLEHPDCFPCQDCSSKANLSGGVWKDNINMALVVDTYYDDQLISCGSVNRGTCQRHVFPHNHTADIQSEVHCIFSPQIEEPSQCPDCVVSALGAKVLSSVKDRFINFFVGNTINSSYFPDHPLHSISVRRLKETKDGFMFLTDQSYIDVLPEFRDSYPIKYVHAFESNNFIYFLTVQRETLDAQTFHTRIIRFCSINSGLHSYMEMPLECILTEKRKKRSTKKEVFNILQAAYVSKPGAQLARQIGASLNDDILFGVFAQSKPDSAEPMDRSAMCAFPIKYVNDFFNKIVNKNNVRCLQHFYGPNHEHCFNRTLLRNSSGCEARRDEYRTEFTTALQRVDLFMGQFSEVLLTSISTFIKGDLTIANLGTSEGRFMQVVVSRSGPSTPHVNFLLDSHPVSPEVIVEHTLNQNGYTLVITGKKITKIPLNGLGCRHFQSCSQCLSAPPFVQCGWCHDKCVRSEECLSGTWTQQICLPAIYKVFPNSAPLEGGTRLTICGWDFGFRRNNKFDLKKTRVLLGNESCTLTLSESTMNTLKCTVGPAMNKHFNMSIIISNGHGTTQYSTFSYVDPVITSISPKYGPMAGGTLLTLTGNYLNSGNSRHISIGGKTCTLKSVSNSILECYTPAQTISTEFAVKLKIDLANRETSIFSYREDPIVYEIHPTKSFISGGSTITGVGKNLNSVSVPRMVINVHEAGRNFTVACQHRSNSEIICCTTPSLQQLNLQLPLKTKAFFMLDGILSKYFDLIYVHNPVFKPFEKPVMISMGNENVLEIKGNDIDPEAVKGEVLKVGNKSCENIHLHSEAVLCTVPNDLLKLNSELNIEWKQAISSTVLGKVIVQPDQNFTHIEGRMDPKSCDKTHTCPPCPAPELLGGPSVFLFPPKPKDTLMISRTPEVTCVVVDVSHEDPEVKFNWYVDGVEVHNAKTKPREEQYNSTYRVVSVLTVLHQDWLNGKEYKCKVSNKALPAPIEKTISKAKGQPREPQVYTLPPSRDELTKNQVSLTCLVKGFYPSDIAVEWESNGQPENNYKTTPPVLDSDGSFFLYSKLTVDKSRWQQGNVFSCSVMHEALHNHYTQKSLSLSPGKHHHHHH
Assay: HGF-competition Alphascreen
Use pM as the unit, but write only the number.

As a guide, the following entries are already answered.
binder | quantity-unit | IC50
A007901250 (VHH, 33H10 variant, 3xFLAG-His6 tagged; the entry holds the tag; also called monovalent form of A007901260) VHH: EVQLVESGGGLVQPGGSLRLSCAASGFAFDDYAIGWFRQAPGEERLGVSSISSTYGLTYYADSVKGRFTISSDNSKNTVYLQMNSLRPEDTAVYYCAATPIGLIGLDAYEYDYWGQGTLVTVSS | pM | 81
A007901251 (VHH, 33H10 variant, 3xFLAG-His6 tagged; the entry holds the tag) VHH: EVQLVESGGGLVQPGGSLRLSCAASGFTFDDYAIGWFRQAPGKERLGVSSISSTYGLTYYADSVKGRFTISSDNSKNTVYLQMNSLRPEDTAVYYCAATPIGLIGLDAYEYDYWGQGTLVTVSS | pM | 68
A007901245 (VHH, 33H10 variant, 3xFLAG-His6 tagged; the entry holds the tag; also called monovalent form of A007901255) VHH: EVQLVESGGGLVQPGGSLRLSCAASGFTFDDYAIGWFRQAPGEEREGVSSISSTYGLTYYADSVKGRFTISSDNSKNTVYLQMNSLRPEDTAVYYCAATPIGLIGLDAYEYDYWGQGTLVTVSS | pM | 92
A007901249 (VHH, 33H10 variant, 3xFLAG-His6 tagged; the entry holds the tag; also called monovalent form of A007901259) VHH: EVQLVESGGGLVQPGGSLRLSCAASGFTFDDYAIGWFRQAPGEERLGVSSISSTYGLTYYADSVKGRFTISSDNSKNTVYLQMNSLRPEDTAVYYCAATPIGLIGLDAYEYDYWGQGTLVTVSS | pM | 80

Let us examine a further case.
IC50 reading for A007901248 (VHH, 33H10 variant, 3xFLAG-His6 tagged; the entry holds the tag) VHH: EVQLVESGGGLVQPGGSLRLSCAASGFAFDDYAIGWFRQAPGKEREGVSSISSTYGLTYYADSVKGRFTISSDNSKNTVYLQMNSLRPEDTAVYYCAATPIGLIGLDAYEYDYWGQGTLVTVSS : 170
